Measured pEC50 values are reported for all entries that follow.
Molecular target: TGFBR2 (Homo sapiens, UniProt P37173)
Sequence (P37173 23-567): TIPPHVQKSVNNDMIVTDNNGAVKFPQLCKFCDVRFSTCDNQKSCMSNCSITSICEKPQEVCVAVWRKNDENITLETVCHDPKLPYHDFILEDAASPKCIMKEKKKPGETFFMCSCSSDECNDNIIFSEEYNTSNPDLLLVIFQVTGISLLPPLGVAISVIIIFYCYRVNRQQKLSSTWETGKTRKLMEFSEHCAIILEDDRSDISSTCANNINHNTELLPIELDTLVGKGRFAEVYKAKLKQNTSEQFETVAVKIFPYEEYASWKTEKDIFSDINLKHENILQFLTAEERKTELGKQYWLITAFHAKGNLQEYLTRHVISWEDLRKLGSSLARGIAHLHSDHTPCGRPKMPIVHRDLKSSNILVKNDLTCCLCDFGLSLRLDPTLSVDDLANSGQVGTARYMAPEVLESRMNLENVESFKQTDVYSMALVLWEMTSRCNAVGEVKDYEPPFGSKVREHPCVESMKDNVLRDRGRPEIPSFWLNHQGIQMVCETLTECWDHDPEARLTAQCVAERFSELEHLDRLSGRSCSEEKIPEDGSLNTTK
Assay: TGFBR2 RBC enzyme assay (Reaction Biology Corp.)
Procedure: Compounds of the disclosure were assayed by Reaction Biology Corp. using the TGFBR2 RBC enzyme assay.
pEC50: −log10 of the molar value.

>  <compound>
CN1CCOc2cccc(c2)-c2cnc(N)c(n2)C(=O)Nc2cnccc21

>  <measured-on>
TGFBR2 (Homo sapiens, UniProt P37173)

>  <pEC50>
7.00 to 9.00

$$$$
>  <compound>
Nc1ncc2nc1C(=O)Nc1cnccc1NCCCCOc1cccc-2c1

>  <measured-on>
TGFBR2 (Homo sapiens, UniProt P37173)

>  <pEC50>
< 6.00

$$$$
>  <compound>
CN1CCCNC(=O)c2cc(ccc2OCCCN)-c2cnc(N)c(n2)C(=O)Nc2cnccc21

>  <measured-on>
TGFBR2 (Homo sapiens, UniProt P37173)

>  <pEC50>
6.00 to 7.00

$$$$
>  <compound>
CC(C)(C)OC(=O)N1C[C@@H]2C[C@@H]1COc1cccc(c1)-c1cnc(N)c(n1)C(=O)Nc1cnccc1O2 (racemic)

>  <measured-on>
TGFBR2 (Homo sapiens, UniProt P37173)

>  <pEC50>
< 6.00

$$$$
